- System: K4 kissing-loop RNA reporter;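 note: bound reporter read as fluorescence of individual clusters on recovered sequencing chips by microscopy, with normalized cluster intensities fitted with a binding model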
- measurement-protocol: apparent KD of K4 kissing-loop reporter; higher = weaker reporter binding
- condition: Eterna round: R107; input ligand: FMN 200 uM
Item-by-item account of apparent KD of K4 kissing-loop reporter
# unit: nM | format: bare number

ordered-residues	measurement-unit	apparent KD of K4 kissing-loop reporter
AGACCACAAAGUGGUCAGUGUUCGCUGCAGCGAGGACCGGUACGGCCGCCACUCGCGAGUGAUGUUCGCGAGCGCAGCGAACACA [Omei KL Tryp A Exc A v5]	nM	95.9
UUCGGAUAAGUCCUUCCGAAGAAGCCGGAAGGAGCGACUCAAUAGUCAGGUAGGUCGCCGGCAAGCGUAGUGAUGUUAUGCUCAC [Arg A SS t6]	nM	966

Let us move to another entry and its apparent KD of K4 kissing-loop reporter.
Ask: Could you share which apparent KD of K4 kissing-loop reporter value was measured for UUAAUAUUGUCGGCCGCCACUGUUUAGUAUUUUGUAUAAUCUAUUUCAAAGUGAUGUUUUGAUUCCAGGACCGGGACAUUUGAUA [JR_Nu_ExcTryptoB_Sub031] ?
Reply: 597
